# assayed-system: Adrenergic receptor alpha-1 (Rattus norvegicus, UniProt P15823+P23944+P43140)
# Sequence (P15823 whole entry): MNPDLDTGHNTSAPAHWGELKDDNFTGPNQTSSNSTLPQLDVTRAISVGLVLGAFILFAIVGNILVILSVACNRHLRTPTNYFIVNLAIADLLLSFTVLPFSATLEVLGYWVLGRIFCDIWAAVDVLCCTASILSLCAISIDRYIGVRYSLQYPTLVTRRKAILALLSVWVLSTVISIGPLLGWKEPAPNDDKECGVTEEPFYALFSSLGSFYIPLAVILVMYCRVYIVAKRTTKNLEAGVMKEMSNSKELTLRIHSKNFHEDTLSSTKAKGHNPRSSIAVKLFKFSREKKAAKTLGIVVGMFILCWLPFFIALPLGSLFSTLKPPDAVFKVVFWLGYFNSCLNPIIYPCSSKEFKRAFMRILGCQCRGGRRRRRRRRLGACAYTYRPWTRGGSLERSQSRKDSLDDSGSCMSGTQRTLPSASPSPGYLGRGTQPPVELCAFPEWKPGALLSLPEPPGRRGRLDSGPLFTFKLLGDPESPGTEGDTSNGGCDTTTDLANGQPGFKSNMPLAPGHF
# Sequence (P23944 whole entry): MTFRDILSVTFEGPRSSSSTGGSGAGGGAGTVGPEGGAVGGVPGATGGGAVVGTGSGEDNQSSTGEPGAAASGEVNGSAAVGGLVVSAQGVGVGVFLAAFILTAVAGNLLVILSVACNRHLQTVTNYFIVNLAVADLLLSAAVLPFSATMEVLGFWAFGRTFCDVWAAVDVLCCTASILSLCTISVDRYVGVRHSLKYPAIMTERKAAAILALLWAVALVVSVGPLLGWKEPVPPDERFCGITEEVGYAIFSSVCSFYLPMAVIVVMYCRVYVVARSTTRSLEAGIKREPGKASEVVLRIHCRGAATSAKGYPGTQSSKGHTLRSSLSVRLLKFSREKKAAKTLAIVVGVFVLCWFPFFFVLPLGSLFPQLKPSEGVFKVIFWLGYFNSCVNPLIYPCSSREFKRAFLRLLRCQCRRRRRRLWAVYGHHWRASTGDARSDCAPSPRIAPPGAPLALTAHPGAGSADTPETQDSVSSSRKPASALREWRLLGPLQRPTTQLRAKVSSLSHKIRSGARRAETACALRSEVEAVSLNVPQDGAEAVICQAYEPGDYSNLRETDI
# Sequence (P43140 whole entry): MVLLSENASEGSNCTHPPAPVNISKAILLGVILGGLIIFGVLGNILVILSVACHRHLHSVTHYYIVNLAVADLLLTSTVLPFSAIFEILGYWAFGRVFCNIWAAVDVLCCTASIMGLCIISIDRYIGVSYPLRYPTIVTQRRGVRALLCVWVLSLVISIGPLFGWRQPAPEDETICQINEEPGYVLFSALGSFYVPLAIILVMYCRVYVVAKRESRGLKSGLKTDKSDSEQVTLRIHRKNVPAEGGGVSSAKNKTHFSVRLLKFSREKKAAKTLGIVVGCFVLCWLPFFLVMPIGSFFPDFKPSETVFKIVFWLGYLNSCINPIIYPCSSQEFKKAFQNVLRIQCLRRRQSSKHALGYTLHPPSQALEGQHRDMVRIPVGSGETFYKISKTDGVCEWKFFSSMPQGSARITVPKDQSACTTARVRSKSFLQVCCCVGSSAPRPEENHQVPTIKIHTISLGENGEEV
Kindly state Ki for each of the entries shown.
One number for each entry, in µM.

Record excerpt, results attached:
compound="O=C1CCc2cc(C(O)CCCN3CCC(c4noc5cc(F)ccc45)CC3)cc3c2N1CC3 (stereo not given)" measured=0.339
compound=O=C(CCCN1CCC(c2noc3cc(F)ccc23)CC1)c1cc2c3c(c1)CCN3C(=O)CC2 measured=0.4913
compound=O=C(CCCCN1CCC(c2noc3cc(F)ccc23)CC1)c1cc2c3c(c1)CCN3C(=O)CC2 measured=0.431

State the recorded Ki for every item in the following list.
1. O=C1CCc2cc(C(O)CCCCN3CCC(c4noc5cc(F)ccc45)CC3)cc3c2N1CC3 (stereo not given)
2. O=C1CCc2cc(CCCCN3CCC(c4noc5cc(F)ccc45)CC3)cc3c2N1CC3

0.596
0.0993

###

# test-description: AUC (0 to infinity) in Sprague-Dawley rat at 10 mg/kg, po by LC-MS/MS analysis
# Format: ADME, organism-based
# Design: dose 10 mg/kg, route oral, time infinity
# assay-conditions: in vivo
measured-metric: AUC(0-inf) (ng·h/mL)
Answers are plain numbers, in ng·h/mL.

Given item `O=C(CCCCN1CCC(c2noc3cc(F)ccc23)CC1)c1cc2c3c(c1)CCN3C(=O)CC2` , the value recorded as its AUC(0-inf) is 18500

###

# assayed-system: Muscarinic acetylcholine receptor M1 (Homo sapiens, UniProt P11229)
# Sequence (P11229 whole entry): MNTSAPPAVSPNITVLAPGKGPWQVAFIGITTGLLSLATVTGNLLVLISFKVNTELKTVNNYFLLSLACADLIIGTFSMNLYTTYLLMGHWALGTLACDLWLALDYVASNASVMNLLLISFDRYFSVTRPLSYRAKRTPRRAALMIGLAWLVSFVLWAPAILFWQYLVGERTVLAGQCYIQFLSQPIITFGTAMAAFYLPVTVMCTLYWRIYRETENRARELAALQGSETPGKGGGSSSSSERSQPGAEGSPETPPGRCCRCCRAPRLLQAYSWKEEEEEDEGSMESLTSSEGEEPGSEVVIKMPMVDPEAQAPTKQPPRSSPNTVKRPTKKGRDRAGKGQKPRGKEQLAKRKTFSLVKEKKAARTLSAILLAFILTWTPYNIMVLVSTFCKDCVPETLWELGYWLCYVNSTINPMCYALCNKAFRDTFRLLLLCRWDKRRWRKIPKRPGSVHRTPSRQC
measured-metric: Ki

Briefly, Ki measured for `O=C(CCCCN1CCC(c2noc3cc(F)ccc23)CC1)c1cc2c3c(c1)CCN3C(=O)CC2` : > 1000 nM

###

# assayed-system: UniProt Q9QYN8
# Sequence (Q9QYN8 whole entry): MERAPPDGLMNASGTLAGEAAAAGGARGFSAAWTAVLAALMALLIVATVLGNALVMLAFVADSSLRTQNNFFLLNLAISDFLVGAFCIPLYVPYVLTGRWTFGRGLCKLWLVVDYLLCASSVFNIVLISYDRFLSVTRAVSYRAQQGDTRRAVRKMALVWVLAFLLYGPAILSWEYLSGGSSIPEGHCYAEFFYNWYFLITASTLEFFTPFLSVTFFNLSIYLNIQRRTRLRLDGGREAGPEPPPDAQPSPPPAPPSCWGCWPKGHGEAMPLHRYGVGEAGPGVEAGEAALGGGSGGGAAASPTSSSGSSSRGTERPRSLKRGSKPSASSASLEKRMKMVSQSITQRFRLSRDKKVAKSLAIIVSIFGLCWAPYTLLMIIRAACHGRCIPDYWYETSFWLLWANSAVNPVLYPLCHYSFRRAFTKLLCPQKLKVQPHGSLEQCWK
pKi: −log10 of the molar value.
measured-metric: pKi

Reported pKi ( `O=C(CCCCN1CCC(c2noc3cc(F)ccc23)CC1)c1cc2c3c(c1)CCN3C(=O)CC2` ) = < 6.00

###

What selectivity ratio was measured for each of the following?
# test-description: Therapeutic index, ratio of ED50 for catalepsy in Kunming mouse to ED50 for apomorphine-induced climbing in Kunming mouse
# Type: toxicity, organism-based
# assay-conditions: in vivo, read-out: Ratio ED50

sample_smiles=O=C(CCCCN1CCC(c2noc3cc(F)ccc23)CC1)c1cc2c3c(c1)CCN3C(=O)CC2 measured_metric="selectivity ratio" measured=129

The reported selectivity ratio of the compound `O=C(CCCN1CCC(O)(c2ccc(Cl)cc2)CC1)c1ccc(F)cc1` was 1.09

###

# assayed-system: Sodium-dependent serotonin transporter (Rattus norvegicus)
# Sequence (P31652 whole entry): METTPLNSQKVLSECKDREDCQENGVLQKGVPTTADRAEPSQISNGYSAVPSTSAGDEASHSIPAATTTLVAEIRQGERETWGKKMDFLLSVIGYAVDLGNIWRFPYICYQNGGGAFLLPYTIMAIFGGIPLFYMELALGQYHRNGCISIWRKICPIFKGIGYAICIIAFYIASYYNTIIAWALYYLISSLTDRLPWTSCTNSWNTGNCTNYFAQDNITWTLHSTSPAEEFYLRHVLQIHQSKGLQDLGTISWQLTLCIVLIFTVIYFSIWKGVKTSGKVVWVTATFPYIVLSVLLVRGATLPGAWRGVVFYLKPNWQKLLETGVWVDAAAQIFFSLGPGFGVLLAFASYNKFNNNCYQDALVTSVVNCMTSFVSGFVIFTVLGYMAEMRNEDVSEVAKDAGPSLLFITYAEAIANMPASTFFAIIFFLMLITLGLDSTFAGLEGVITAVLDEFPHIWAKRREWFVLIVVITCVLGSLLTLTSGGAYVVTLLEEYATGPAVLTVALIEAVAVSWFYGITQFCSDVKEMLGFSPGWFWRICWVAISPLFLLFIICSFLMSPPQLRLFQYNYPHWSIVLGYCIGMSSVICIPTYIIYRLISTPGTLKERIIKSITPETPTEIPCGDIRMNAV
measured-metric: Ki

The measured Ki associated with `O=C(CCCCN1CCC(c2noc3cc(F)ccc23)CC1)c1cc2c3c(c1)CCN3C(=O)CC2` reads > 1 µM

###

Here we list compounds with their recorded pKi when tested on 5-hydroxytryptamine receptor 1A (Rattus norvegicus).
Sequence (P19327 whole entry): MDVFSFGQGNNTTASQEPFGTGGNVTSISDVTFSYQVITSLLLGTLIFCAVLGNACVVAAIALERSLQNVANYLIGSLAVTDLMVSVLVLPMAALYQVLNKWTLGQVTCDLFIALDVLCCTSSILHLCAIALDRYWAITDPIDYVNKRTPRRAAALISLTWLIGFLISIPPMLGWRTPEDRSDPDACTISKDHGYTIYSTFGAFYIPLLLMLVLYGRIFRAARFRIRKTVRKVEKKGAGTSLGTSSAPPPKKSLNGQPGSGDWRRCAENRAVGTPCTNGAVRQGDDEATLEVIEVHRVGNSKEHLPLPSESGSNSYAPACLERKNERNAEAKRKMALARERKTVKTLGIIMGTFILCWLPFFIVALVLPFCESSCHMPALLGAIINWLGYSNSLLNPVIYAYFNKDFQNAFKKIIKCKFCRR
Give bare numbers, as −log10 of the molar value.

Here is how some compounds turned out for pKi.
compound="CC1CC(=O)N2CCCc3cc(CCCCN4CCC(c5noc6cc(F)ccc56)CC4)cc1c32 (stereo not given)" assayed_system="5-hydroxytryptamine receptor 1A (Rattus norvegicus)" measured_metric=pKi measured=7.08
compound=O=C(CCCCN1CCC(c2noc3cc(F)ccc23)CC1)c1cc2c3c(c1)CCN3C(=O)CC2 assayed_system="5-hydroxytryptamine receptor 1A (Rattus norvegicus)" measured_metric=pKi measured=8.07
compound=O=C(CCCN1CCC(c2noc3cc(F)ccc23)CC1)c1cc2c3c(c1)CCC(=O)N3CCC2 assayed_system="5-hydroxytryptamine receptor 1A (Rattus norvegicus)" measured_metric=pKi measured=7.48
compound=O=C(CCN1CCC(c2noc3cc(F)ccc23)CC1)c1cc2c3c(c1)CCN3C(=O)CC2 assayed_system="5-hydroxytryptamine receptor 1A (Rattus norvegicus)" measured_metric=pKi measured=7.79

Query CC1CC(=O)N2CCCc3cc(C(=O)CCCN4CCC(c5noc6cc(F)ccc56)CC4)cc1c32 (stereo not given) yields pKi of 7.37

###

# assayed-system: Sodium-dependent dopamine transporter (Rattus norvegicus, UniProt P23977)
# Sequence (P23977 whole entry): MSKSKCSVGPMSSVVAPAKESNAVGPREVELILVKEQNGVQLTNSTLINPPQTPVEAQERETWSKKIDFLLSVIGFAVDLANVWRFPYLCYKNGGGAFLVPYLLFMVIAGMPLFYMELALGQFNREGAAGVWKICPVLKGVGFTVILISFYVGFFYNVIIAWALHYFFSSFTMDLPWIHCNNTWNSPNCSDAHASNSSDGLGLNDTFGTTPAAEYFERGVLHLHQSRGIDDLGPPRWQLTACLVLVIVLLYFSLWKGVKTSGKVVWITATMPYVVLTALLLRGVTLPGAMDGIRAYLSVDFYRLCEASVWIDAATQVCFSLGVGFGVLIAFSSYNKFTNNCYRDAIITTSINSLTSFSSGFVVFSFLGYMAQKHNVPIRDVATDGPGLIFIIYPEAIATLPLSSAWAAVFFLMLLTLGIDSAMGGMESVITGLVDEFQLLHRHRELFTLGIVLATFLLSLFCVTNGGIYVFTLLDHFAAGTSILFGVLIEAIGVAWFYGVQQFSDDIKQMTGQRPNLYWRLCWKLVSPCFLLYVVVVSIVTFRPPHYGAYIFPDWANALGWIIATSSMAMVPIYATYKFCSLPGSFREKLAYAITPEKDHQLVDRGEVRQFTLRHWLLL
# test-description: Displacement of [3H] WIN35,428 from rat striatum homogenate DAT after 8 hrs mins by liquid scintillation counting
measured-metric: Ki

The reported Ki of the compound `O=C(CCCCN1CCC(c2noc3cc(F)ccc23)CC1)c1cc2c3c(c1)CCN3C(=O)CC2` was > 1000 nM

###

# test-description: Half life in Sprague-Dawley rat at 1 mg/kg, iv by LC-MS/MS analysis
# Assay type: ADME, organism-based
# assay-conditions: in vivo
measured-metric: half-life
Please answer using the number first and the unit second.

The measured half-life associated with `O=C(CCCCN1CCC(c2noc3cc(F)ccc23)CC1)c1cc2c3c(c1)CCN3C(=O)CC2` reads 2.15 h

###

# test-description: AUC (0 to t) in Sprague-Dawley rat at 10 mg/kg, po by LC-MS/MS analysis
# Format: ADME, organism-based
# assay-conditions: in vivo
measured-metric: AUC(0-t) (ng·h/mL)
Answers are plain numbers, in ng·h/mL.

AUC(0-t) measured on `O=C(CCCCN1CCC(c2noc3cc(F)ccc23)CC1)c1cc2c3c(c1)CCN3C(=O)CC2` = 18500

###

# assayed-system: 5-hydroxytryptamine receptor 7 (Rattus norvegicus, UniProt P32305)
# Sequence (P32305 whole entry): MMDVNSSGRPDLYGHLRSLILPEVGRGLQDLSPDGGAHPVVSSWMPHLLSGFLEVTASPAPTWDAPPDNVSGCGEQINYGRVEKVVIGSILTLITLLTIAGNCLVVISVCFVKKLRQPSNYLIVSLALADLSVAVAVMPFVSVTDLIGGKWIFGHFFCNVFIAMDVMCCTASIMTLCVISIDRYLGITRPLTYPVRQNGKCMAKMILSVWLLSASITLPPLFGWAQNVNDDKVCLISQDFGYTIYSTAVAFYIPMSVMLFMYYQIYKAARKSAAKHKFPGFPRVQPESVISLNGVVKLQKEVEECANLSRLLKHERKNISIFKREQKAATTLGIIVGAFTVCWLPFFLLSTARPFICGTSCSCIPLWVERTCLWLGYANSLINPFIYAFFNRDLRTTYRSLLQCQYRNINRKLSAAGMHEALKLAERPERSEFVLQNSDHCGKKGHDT
measured-metric: Ki (nM)
Answers are plain numbers, in nM.

Param item: `O=C(CCCCN1CCC(c2noc3cc(F)ccc23)CC1)c1cc2c3c(c1)CCN3C(=O)CC2` ; param system: 5-hydroxytryptamine receptor 7 (Rattus norvegicus, UniProt P32305); output Ki: 226

###

# assayed-system: UniProt:Q12809
# Sequence (Q12809 whole entry): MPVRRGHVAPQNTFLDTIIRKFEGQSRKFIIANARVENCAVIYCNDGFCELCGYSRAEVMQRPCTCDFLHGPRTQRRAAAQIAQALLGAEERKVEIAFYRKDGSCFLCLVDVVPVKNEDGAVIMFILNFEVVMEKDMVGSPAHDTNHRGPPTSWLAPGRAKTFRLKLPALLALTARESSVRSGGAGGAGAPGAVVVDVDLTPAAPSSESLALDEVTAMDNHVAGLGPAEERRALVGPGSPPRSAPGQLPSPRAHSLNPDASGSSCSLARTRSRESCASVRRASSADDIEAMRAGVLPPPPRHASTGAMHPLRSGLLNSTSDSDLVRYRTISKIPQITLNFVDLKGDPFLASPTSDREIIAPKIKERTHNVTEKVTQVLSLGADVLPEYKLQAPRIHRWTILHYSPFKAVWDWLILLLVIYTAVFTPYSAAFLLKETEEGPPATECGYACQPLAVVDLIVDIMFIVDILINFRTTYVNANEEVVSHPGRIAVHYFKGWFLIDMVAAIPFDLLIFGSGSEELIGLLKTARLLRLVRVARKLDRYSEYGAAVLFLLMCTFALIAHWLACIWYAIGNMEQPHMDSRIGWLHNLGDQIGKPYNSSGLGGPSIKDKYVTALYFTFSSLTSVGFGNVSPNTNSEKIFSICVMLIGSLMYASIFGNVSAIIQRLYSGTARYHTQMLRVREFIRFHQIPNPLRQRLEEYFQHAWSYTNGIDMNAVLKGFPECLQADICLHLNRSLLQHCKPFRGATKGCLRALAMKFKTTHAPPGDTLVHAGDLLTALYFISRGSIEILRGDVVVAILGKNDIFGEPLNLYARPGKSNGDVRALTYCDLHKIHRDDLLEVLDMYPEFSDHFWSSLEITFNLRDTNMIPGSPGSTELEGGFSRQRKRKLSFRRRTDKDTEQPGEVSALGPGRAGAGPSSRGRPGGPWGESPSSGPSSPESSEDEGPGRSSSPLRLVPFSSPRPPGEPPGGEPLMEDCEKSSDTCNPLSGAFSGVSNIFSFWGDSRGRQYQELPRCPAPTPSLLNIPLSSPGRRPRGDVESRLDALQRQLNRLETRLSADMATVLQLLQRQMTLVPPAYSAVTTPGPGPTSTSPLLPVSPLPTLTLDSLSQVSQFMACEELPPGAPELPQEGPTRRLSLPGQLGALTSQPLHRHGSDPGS
Hi there, I'd appreciate the recorded pIC50 for every entry that follows.
Give bare numbers, as −log10 of the molar value.

compound="O=C1CCc2cc(C(O)CCCN3CCC(c4noc5cc(F)ccc45)CC3)cc3c2N1CC3 (configuration not stated)" measured_metric=pIC50 measured=5.72

`O=C(CCCCN1CCC(c2noc3cc(F)ccc23)CC1)c1cc2c3c(c1)CCN3C(=O)CC2` has a reported pIC50 of 5.54
